Tested on: RPMI-8226 leukemia
assay: NCI tumour cell line growth inhibition, 48 h

[
  {
    "molecule": "CCC(c1ccccc1)c1cc(C(C)(C)C)cc(C(C)(C)C)c1O (stereo not given)",
    "system-under-test": "RPMI-8226 leukemia",
    "measure-unit": "µM",
    "censoring-operator": "=",
    "TGI": 28.5
  },
  {
    "molecule": "COc1ccc(Nc2nc(N)c(C(=O)c3ccc(Cl)cc3)s2)cc1",
    "system-under-test": "RPMI-8226 leukemia",
    "measure-unit": "µM",
    "censoring-operator": "<",
    "TGI": 0.01
  },
  {
    "molecule": "CCCCCCCCCCCC[N+]12CC[N+](C)(CC1)CC2",
    "system-under-test": "RPMI-8226 leukemia",
    "measure-unit": "µM",
    "censoring-operator": "=",
    "TGI": 41.7
  },
  {
    "molecule": "O=c1c2c3c(sc2nc2n1NC=NN2)CCCC3",
    "system-under-test": "RPMI-8226 leukemia",
    "measure-unit": "µM",
    "censoring-operator": "=",
    "TGI": 50.6
  },
  {
    "molecule": "COc1cc(C(=O)O[C@H](C(=O)NCCCCNC(=O)[C@@H](OC(=O)c2cc(OC)cc3c(C)cccc23)[C@]2(C)CO2)[C@]2(C)CO2)c2cccc(C)c2c1",
    "system-under-test": "RPMI-8226 leukemia",
    "measure-unit": "µM",
    "censoring-operator": "=",
    "TGI": 3.86
  }
]
